// data source = ChEMBL document CHEMBL4028827

method: Volume of distribution in Sprague-Dawley rat at 1 mg/kg, iv or 2 mg/kg, po administered via gavage by LC-MS/MS analysis
Type: ADME, organism-based
test_context: in vivo
recorded_metric: Vd
Put down the number, then write its unit next to it.

So for CC(C)(O)c1cncc(-n2ncc3c(C(F)(F)F)cccc32)c1 , the logged Vd turned out to be 6.3 L/kg

----------
Please go through the items and note down their log10 of IC50.
target_desc: Cytochrome P450 11B2, mitochondrial (Rattus norvegicus)
Sequence (P30099 whole entry): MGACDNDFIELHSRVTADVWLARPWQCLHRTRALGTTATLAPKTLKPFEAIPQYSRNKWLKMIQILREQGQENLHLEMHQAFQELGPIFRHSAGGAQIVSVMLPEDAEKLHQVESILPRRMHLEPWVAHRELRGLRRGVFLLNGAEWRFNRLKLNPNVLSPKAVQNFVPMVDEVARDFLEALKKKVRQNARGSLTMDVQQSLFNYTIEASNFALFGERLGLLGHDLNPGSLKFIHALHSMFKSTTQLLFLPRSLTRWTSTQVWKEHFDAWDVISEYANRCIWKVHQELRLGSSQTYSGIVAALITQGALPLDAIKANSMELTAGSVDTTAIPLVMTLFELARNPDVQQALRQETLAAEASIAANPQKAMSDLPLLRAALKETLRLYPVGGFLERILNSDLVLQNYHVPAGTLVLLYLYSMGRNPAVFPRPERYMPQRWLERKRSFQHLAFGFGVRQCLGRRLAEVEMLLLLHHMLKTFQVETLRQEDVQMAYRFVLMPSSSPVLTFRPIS
method: Inhibition of rat CYP11B2-1F4 expressed in Chinese hamster V79 cells using 11-deoxycorticosterone as substrate preincubated for 1 hr followed by substrate addition measured for 3 hrs by HTRF assay
The base-10 logarithm of IC50, taken with IC50 in nM, is what appears here.

Below: 4 compounds and their reported log10 of IC50.
Cc1nn(-c2cncc([C@@](C)(O)C(F)(F)F)c2)c2ccccc12 = 1.52
CC(C)(O)c1cncc(-n2ncc3c(C(F)(F)F)cccc32)c1 = 0.34
Cc1nn(-c2cncc(C(C)(C)O)c2)c2cccc(F)c12 = 0.11
Cc1nn(-c2cncc([C@](C)(O)C(F)(F)F)c2)c2ccccc12 = 1.15

Here's the next entry for you.
Form field log10 of IC50 for item C[C@](O)(c1cncc(-n2nc(C(F)(F)F)c3ccccc32)c1)C(F)(F)F on Cytochrome P450 11B2, mitochondrial (Rattus norvegicus): 1.89

----------
method: Oral bioavailability in Sprague-Dawley rat at 2 mg/kg administered via gavage by LC-MS/MS analysis
Type: ADME, organism-based
test_context: in vivo
recorded_metric: bioavailability
Put down the number, then write its unit next to it.

So for CC(C)(O)c1cncc(-n2ncc3c(C(F)(F)F)cccc32)c1 , the logged bioavailability turned out to be 28%

----------
As a worked illustration, we turn to IC50 data collected for Aromatase (Homo sapiens, UniProt P11511).
Answers are plain numbers, in µM.

CC(C)(O)c1cncc(-n2ncc3c(C(F)(F)F)cccc32)c1 = 4.6

So for C[C@](O)(c1cncc(-n2nc(C(F)(F)F)c3ccccc32)c1)C(F)(F)F , the logged IC50 turned out to be 5.4

----------
Please go through the items and note down their CLint scaled.
method: Intrinsic clearance in rat liver microsomes at […] preincubated for 10 mins followed by NADPH addition measured after 45 mins by LC-MS analysis
Type: ADME, microsome
test_context: read-out: CLH
Numbers only, in mL/min/kg.

Below: 4 compounds and their reported CLint scaled.
Fc1cncc(-n2ncc3cc(F)ccc32)c1 = 85
Fc1ccc2c(cnn2-c2cccnc2)c1 = 43
Fc1ccc2c(cnn2-c2cncc(C(F)(F)F)c2)c1 = 300
CC(C)(O)c1cncc(-n2ncc3c(F)cccc32)c1 = 64

For every item below, please supply its CLint scaled.
1. CC(C)(O)c1cncc(-n2ncc3cc(F)ccc32)c1
2. CC(C)(O)c1cncc(-n2ncc3ccc(F)cc32)c1
3. CC(O)(c1cncc(-n2ncc3cc(F)ccc32)c1)C(F)(F)F (configuration not stated)

Reply text:
[30, 83, 230]
